Parameter IC50: see the listing below.
Test system: Human immunodeficiency virus 1
method notes: Antiviral activity against P236L strain of HIV-1
Type: functional, organism-based
Please give a number only; it is taken to be in nM.

Query :: Dear colleague, please send me the reported IC50 for Cc1ccnc2c1NC(=O)c1cccnc1N2C1CC1 when you can.
Result :: 56

Now consider the entry below.
Query :: Assign IC50 to the following record: CC(C)Nc1cccnc1N1CCN(C(=O)c2cc3cc(NS(C)(=O)=O)ccc3[nH]2)CC1
Result :: 1600

###

Test system: Human immunodeficiency virus 1
method notes: Antiviral activity against V106A strain of HIV-1
Format: functional, organism-based
assay endpoint: pIC50
Conceptually, pIC50 converts a concentration in mol/L into minus its log10.

Query :: In one line, give reported pIC50 of the entry Cc1ccnc2c1NC(=O)c1cccnc1N2C1CC1 .
Result :: 5.05

***
Query :: Annotate the compound CC(C)Nc1cccnc1N1CCN(C(=O)c2cc3cc(NS(C)(=O)=O)ccc3[nH]2)CC1 with its measured pIC50.
Result :: 6.05
